Recorded half-life values for a group of molecules are listed next.
# experiment-notes: In vitro mouse serum stability assay
# Type: in vitro ADME
# cond: serum
Non-standard residues stand in square brackets, D forms with d. Residues, ends and D or L forms follow the SMILES beside them.
parameter-measured: half-life

INSERT INTO assay_data (molecule, experimental_result) VALUES
  ('N=C(N)NCCC[C@H](NC(=O)[C@@H](Cc1ccccc1)NC(=O)[C@H](Cc1cnc[nH]1)NC(=O)CNC(=O)[C@@H]1CCCN1C(=O)CNC(=O)[C@@H]1CCCN1C(=O)CNC(=O)[C@@H]1CCCN1C(=O)CNC(=O)[C@@H]1CCCN1C(=O)CNC(=O)[C@@H]1CCCN1C(=O)CNC(=O)[C@@H]1CCCN1)C(=O)N[C@@H](Cc1c[nH]c2ccccc12)C(N)=O [CJL-1-41, (Pro-Gly)6-His-DPhe-Arg-Trp-NH2] (H-PGPGPGPGPGPGH[dF]RW-NH2)', '6 min'),
  ('CC(=O)N[C@@H](Cc1cnc[nH]1)C(=O)N[C@H](Cc1ccccc1)C(=O)N[C@@H](CCCNC(=N)N)C(=O)N[C@@H](Cc1c[nH]c2ccccc12)C(=O)N1CCC[C@H]1C(=O)NCC(=O)N1CCC[C@H]1C(=O)NCC(=O)N1CCC[C@H]1C(=O)NCC(=O)N1CCC[C@H]1C(=O)NCC(=O)N1CCC[C@H]1C(=O)NCC(=O)N1CCC[C@H]1C(=O)NCC(=O)N[C@@H](Cc1cnc[nH]1)C(=O)N[C@H](Cc1ccccc1)C(=O)N[C@@H](CCCNC(=N)N)C(=O)N[C@@H](Cc1c[nH]c2ccccc12)C(N)=O [CJL-1-31] (Ac-H[dF]RWPGPGPGPGPGPGH[dF]RW-NH2)', '6 min');
